- TGT: APP-Avi-soluble human LOX-1(61-273) (human, UniProt P78380 61-273)
- ASSAY REMARKS: SET, IgG vs soluble human LOX-1
REPORTED ENDPOINT: Kd (pM)
Output spec: scalar in pM, unitless text.

# return recorded Kd for input MOR22031 (antibody, human IgG1, kappa, L234A L235A, V domains shown, Human IgG1f LALA; also called MOR022031; MOR20231) VH: QVQLVQSGAEVKKPGSSVKVSCKASGGTFSDYAISWVRQAPGQGLEWMGGIMPISGAPYYAQKFQGRVTITADESTSTAYMELSSLRSEDTAVYYCARDSSTSYYYYFDYWGQGTLVTVSS VL: DIQMTQSPSSLSASVGDRVTITCRASQDISSWLAWYQQKPGKAPKLLIYQASNLQSGVPSRFSGSGSGTDFTLTISSLQPEDFATYYCQQIDHTPFTFGQGTKVEIKR
3

# return recorded Kd for input MOR021435 (antibody, human IgG1, kappa, L234A L235A, V domains shown, also called MOR21435) VH: QVQLVQSGAEVKKPGSSVKVSCKASGGTFSDYAISWVRQAPGQGLEWMGGIVPIVGTANYAQKFQGRVTITADESTSTAYMELSSLRSEDTAVYYCARDSSTSYYYYFDYWGQGTLVTVSS VL: DIQMTQSPSSLSASVGDRVTITCRASQDINSWLAWYQQKPGKAPKLLIYQASNLQSGVPSRFSGSGSGTDFTLTISSLQPEDFATYYCQQMWQFPITFGQGTKVEIKR
6

New cases:
# return recorded Kd for input MOR021441 (antibody, V domains shown, IgG (human IgG1f LALA); parent MOR20159 with the printed LCDR3 stretch exchanged) VH: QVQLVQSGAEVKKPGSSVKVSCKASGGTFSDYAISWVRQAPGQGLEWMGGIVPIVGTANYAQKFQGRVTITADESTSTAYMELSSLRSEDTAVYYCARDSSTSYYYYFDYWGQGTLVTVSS VL: DIQMTQSPSSLSASVGDRVTITCRASQDINSWLAWYQQKPGKAPKLLIYQASNLQSGVPSRFSGSGSGTDFTLTISSLQPEDFATYYCQQMKTFPITFGQGTKVEIKR
3

# return recorded Kd for input MOR020052 (antibody, human IgG1, lambda, L234A L235A, V domains shown, also called MOR20052) VH: QVQLVQSGAEVKKPGSSVKVSCKASGGTFSDYAISWVRQAPGQGLEWMGGIIPGFGQANYAQKFQGRVTITADESTSTAYMELSSLRSEDTAVYYCAREPSPLYGPYSDYVMDPWGQGTLVTVSS VL: DIALTQPASVSGSPGQSITISCTGTSSDVGYFNFVSWYQQHPGKAPKLMIYDVSNRPSGVSNRFSGSKSGNTASLTISGLQAEDEADYYCASYGWDSSWVFGGGTKLTVLG
500

# return recorded Kd for input MOR020144 (antibody, human IgG1, lambda, L234A L235A, V domains shown, also called MOR20144) VH: QVQLLESGGGLVQPGGSLRLSCAASGFTFSDYALHWVRQAPGKGLEWVSVISYSGGYTYYADSVKGRFTISRDNSKNTLYLQMNSLRAEDTAVYYCARSPGLTSYHDSWGQGTLVTVSS VL: DIVLTQPPSVSGAPGQRVTISCSGSSSNIGSNYVSWYQQLPGTAPKLLIHSNSHRPSGVPDRFSGSKSGTSASLAITGLQAEDEADYYCQSWDYESERVVFGGGTKLTVLG
0.2

# return recorded Kd for input MOR021433 (antibody, human IgG1, kappa, L234A L235A, V domains shown, also called MOR21433) VH: QVQLVQSGAEVKKPGSSVKVSCKASGGTFSDYAISWVRQAPGQGLEWMGGIMPISGAPYYAQKFQGRVTITADESTSTAYMELSSLRSEDTAVYYCARDSSTSYYYYFDYWGQGTLVTVSS VL: DIQMTQSPSSLSASVGDRVTITCRASQDINSWLAWYQQKPGKAPKLLIYQASNLQSGVPSRFSGSGSGTDFTLTISSLQPEDFATYYCQQIDHTPFTFGQGTKVEIKR
2.5

# return recorded Kd for input MOR021434 (antibody, V domains shown, IgG (human IgG1f LALA); parent MOR20159 with the printed HCDR2 stretch exchanged) VH: QVQLVQSGAEVKKPGSSVKVSCKASGGTFSDYAISWVRQAPGQGLEWMGGIVPILGAANYAQKFQGRVTITADESTSTAYMELSSLRSEDTAVYYCARDSSTSYYYYFDYWGQGTLVTVSS VL: DIQMTQSPSSLSASVGDRVTITCRASQDINSWLAWYQQKPGKAPKLLIYQASNLQSGVPSRFSGSGSGTDFTLTISSLQPEDFATYYCQQIDHTPFTFGQGTKVEIKR
7

# return recorded Kd for input MOR021451 (antibody, V domains shown, IgG (human IgG1f LALA); parent MOR20152 with the printed HCDR2 stretch exchanged) VH: QVQLVQSGAEVKKPGSSVKVSCKASGGTFSSYAISWVRQAPGQGLEWMGRIVPGFVYTSYAQKFQGRVTITADESTSTAYMELSSLRSEDTAVYYCARDPLYRSDYYYHWFDFWGQGTLVTVSS VL: DIALTQPASVSGSPGQSITISCTGTSSDVGNFNYVSWYQQHPGKAPKLMIYGVNNRPSGVSNRFSGSKSGNTASLTISGLQAEDEADYYCAAYGWALDEVVFGGGTKLTVLG
0.1

# return recorded Kd for input MOR021463 (antibody, V domains shown, IgG (human IgG1f LALA); parent MOR20144 with the printed HCDR2 stretch exchanged) VH: QVQLLESGGGLVQPGGSLRLSCAASGFTFSDYALHWVRQAPGKGLEWVSVISYMGGFKYYADSVKGRFTISRDNSKNTLYLQMNSLRAEDTAVYYCARSPGLTSYHDSWGQGTLVTVSS VL: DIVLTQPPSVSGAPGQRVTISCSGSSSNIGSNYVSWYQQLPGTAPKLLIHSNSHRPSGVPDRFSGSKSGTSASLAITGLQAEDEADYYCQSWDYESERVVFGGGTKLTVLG
1.3

# return recorded Kd for input MOR020159 (antibody, human IgG1, kappa, L234A L235A, V domains shown, also called MOR20159) VH: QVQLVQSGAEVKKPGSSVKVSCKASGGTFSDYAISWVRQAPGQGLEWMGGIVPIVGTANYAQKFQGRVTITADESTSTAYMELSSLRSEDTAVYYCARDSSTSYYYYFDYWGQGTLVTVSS VL: DIQMTQSPSSLSASVGDRVTITCRASQDINSWLAWYQQKPGKAPKLLIYQASNLQSGVPSRFSGSGSGTDFTLTISSLQPEDFATYYCQQIDHTPFTFGQGTKVEIKR
560
